Target: T1, PSMA Fab (biotinylated (site not stated))
T1 construct: Biotinylated PSMA Fab captured on neutravidin coated plates for the clonal phage ELISA; also called Anti-PSMA Fab; 006 PSMA Fab
Assay: clonal phage supernatant ELISA on PSMA Fab pre-incubated with PSMA antigen as competitor; anti-M13-HRP detection
propertyLabel: Phage binding ELISA signal, Anti-PSMA Fab with PSMA antigen
Numbers only.

Sample records with Phage binding ELISA signal, Anti-PSMA Fab with PSMA antigen:
VVQLCRPSWMCQGF (Clonal phage of the peptide-180 library; not shown: pIII filament protein of the bacteriophage, fused to the peptide) [Phage-3110]	0.281
NPMYCKPSWMCEGF (Clonal phage of the peptide-180 library; not shown: pIII filament protein of the bacteriophage, fused to the peptide) [Phage-3106]	0.0958

Required: Phage binding ELISA signal, Anti-PSMA Fab with PSMA antigen, one value per binder below.
1. NGVVCQPPWMCFGF (Clonal phage of the peptide-180 library; not shown: pIII filament protein of the bacteriophage, fused to the peptide) [Phage-3113]
2. VEAMCKPWWMCEGL (Clonal phage of the peptide-180 library; not shown: pIII filament protein of the bacteriophage, fused to the peptide) [Phage-3109]

Data returned:
1: 0.0794; 2: 0.0719

Dear colleague, could you send me Phage binding ELISA signal, Anti-PSMA Fab with PSMA antigen for each of the items below? Thanks.
1. DFAYCKPEWMCVGF (Clonal phage of the peptide-180 library; not shown: pIII filament protein of the bacteriophage, fused to the peptide) [Phage-3102]
2. QEIRCEPIWMCWGF (Clonal phage of the peptide-180 library; not shown: pIII filament protein of the bacteriophage, fused to the peptide) [Phage-3105]

Data returned:
0.0844
0.147

Each binder below has a recorded value; state its Phage binding ELISA signal, Anti-PSMA Fab with PSMA antigen.
1. PVAVCKPEWMCIGF (Clonal phage of the peptide-180 library; not shown: pIII filament protein of the bacteriophage, fused to the peptide) [Phage-3107]
2. GEILCRPAWMCYGF (Clonal phage of the peptide-180 library; not shown: pIII filament protein of the bacteriophage, fused to the peptide) [Phage-3103]
3. IEIMCMPRWMCDGF (Clonal phage of the peptide-180 library; not shown: pIII filament protein of the bacteriophage, fused to the peptide) [Phage-3111]
4. EPQMCIPRWMCDGF (Clonal phage of the peptide-180 library; not shown: pIII filament protein of the bacteriophage, fused to the peptide) [Phage-3112]
5. VPRYCVPQWMCAAF (Clonal phage of the peptide-180 library; not shown: pIII filament protein of the bacteriophage, fused to the peptide) [Phage-3114]
6. SEVVCVPTWMCTGF (Clonal phage of the peptide-180 library; not shown: pIII filament protein of the bacteriophage, fused to the peptide) [Phage-3108]
7. GEVLCRPAWMCSGF (Clonal phage of the peptide-180 library; not shown: pIII filament protein of the bacteriophage, fused to the peptide) [Phage-3104]

Data returned:
1: 0.105; 2: 0.119; 3: 0.101; 4: 0.135; 5: 0.0864; 6: 0.0805; 7: 0.11
